Biological target: UGT2B7 (Homo sapiens, UniProt P16662)
Sequence (P16662 24-529): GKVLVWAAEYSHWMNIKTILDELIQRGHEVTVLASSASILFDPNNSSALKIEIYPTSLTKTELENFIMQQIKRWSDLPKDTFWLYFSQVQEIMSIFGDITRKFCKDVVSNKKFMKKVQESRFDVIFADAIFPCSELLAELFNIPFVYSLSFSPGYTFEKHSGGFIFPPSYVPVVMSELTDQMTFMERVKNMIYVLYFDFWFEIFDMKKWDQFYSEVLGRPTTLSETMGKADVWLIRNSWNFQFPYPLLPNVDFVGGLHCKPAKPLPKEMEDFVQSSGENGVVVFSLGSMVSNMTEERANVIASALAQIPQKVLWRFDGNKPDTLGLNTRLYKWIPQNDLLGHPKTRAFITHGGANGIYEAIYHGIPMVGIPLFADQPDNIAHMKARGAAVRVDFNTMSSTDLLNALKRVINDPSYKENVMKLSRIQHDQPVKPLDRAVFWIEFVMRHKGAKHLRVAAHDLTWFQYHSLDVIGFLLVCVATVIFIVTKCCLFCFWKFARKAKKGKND
Experiment: Inhibition of expressed UGT2B7 (probe 4-MU)
Type: in vitro ADME
Details: recombinant isozyme; mean ± SD of triplicate; unit not given (IC50 classes in μM); read-out: IC50 towards UGT2B7
Method: After centrifugation (13,800g, 10 min), the supernatant (8 μL) was obtained for determination by UHPLC system. Similarly, β-estradiol (60 μM), propofol (40 μM) and 4-MU (350 μM) were typically used as the substrates for UGT1A1, 1A9 and 2B7, respectively. After optimization of incubation conditions (Additional file 1: Fig. S2), the protein concentrations for UGT1A1, 1A9, and 2B7 were 0.125, 0.05, and 0.05 mg/mL, respectively.
Overview of reported IC50 across a group of compounds:

- compound: "CC(C)=CCC[C@](C)(O)[C@H]1CC[C@]2(C)[C@@H]1[C@H](O)C[C@@H]1[C@@]3(C)CC[C@H](O)C(C)(C)[C@@H]3[C@@H](O[C@@H]3O[C@H](CO)[C@@H](O)[C@H](O)[C@H]3O[C@@H]3O[C@H](CO)[C@@H](O)[C@H](O)[C@H]3O)C[C@]12C [Compound C7, Ginsenoside Rf]"
  IC50: "> 100 µM"
- compound: "CC(C)(O)[C@@H]1CC[C@](C)([C@H]2[C@@H](O)C[C@@]3(C)[C@@H]4C[C@H](O[C@@H]5O[C@H](CO)[C@@H](O)[C@H](O)[C@H]5O)[C@H]5C(C)(C)[C@@H](O[C@@H]6OC[C@@H](O)[C@H](O)[C@H]6O)CC[C@@]56C[C@@]46CC[C@]23C)O1 [Compound B2, Astragaloside IV]"
  IC50: "> 100 µM"
- compound: "CC(C)=CCC[C@](C)(O[C@@H]1O[C@H](CO)[C@@H](O)[C@H](O)[C@H]1O)[C@H]1CC[C@]2(C)[C@@H]1[C@H](O)C[C@@H]1[C@@]3(C)CC[C@H](O[C@@H]4O[C@H](CO)[C@@H](O)[C@H](O)[C@H]4O[C@@H]4O[C@H](CO)[C@@H](O)[C@H](O)[C@H]4O)C(C)(C)[C@@H]3CC[C@]12C [Compound D2, Ginsenoside Rd]"
  IC50: "> 100 µM"

Now for a further compound.
Value of measured IC50 for the entry CC(C)=CCC[C@](C)(O[C@@H]1O[C@H](CO[C@@H]2O[C@H](CO)[C@@H](O)[C@H](O)[C@H]2O)[C@@H](O)[C@H](O)[C@H]1O)[C@H]1CC[C@]2(C)[C@@H]1[C@H](O)C[C@@H]1[C@@]3(C)CC[C@H](O[C@@H]4O[C@H](CO)[C@@H](O)[C@H](O)[C@H]4O[C@@H]4O[C@H](CO)[C@@H](O)[C@H](O)[C@H]4O)C(C)(C)[C@@H]3CC[C@]12C [Compound D5, Ginsenoside Rb1] : > 100 µM
